# target.of.assay: Nav1.7 (or SCN9A) channel (Homo sapiens)
# Construct: expressed in transfected cells
# assay.protocol: Nav1.7 PatchXpress automated whole-cell electrophysiology in HEK cells expressing hSCN9A
# Assay type: cell-based
# protocol.conditions: estimated IC50 from single point data, PatchXpress assay, held at V1/2 of inactivation, read-out: Nav1.7 EIC50
value.kind: IC50 (nM)

> print(dat)
                                   compound  value.kind  reported
1  COc1ccc(-c2cc(C(=O)NS(C)(=O)=O)ccc2Oc2ccc(Cl)cc2)c(C)n1 [Example 42]        IC50      7500
2  COc1ncccc1-c1cc(C(=O)NS(C)(=O)=O)ccc1Oc1ccc(C(F)(F)F)cc1 [Example 87]        IC50        86
3  COc1ncccc1-c1cc(C(=O)NS(C)(=O)=O)ccc1Oc1ccc(OCC(C)C)nc1 [Example 2]        IC50       220
4  COc1ncccc1-c1cc(C(=O)NS(C)(=O)=O)ccc1Oc1ccc(Cl)c(F)c1 [Example 66]        IC50        98
5  COc1cc(Cl)cc(Oc2ccc(C(=O)NS(C)(=O)=O)cc2-c2cccnc2OC)c1 [Example 57]        IC50       660

I: CCOc1ccc(Oc2ccc(C(=O)NS(C)(=O)=O)cc2-c2cccnc2OC)cc1 [Example 83]
II: COc1ncccc1-c1cc(C(=O)NS(C)(=O)=O)ccc1Oc1cccc(C(F)(F)F)c1F [Example 81]
III: COc1ncccc1-c1cc(C(=O)NS(C)(=O)=O)ccc1Oc1ccccc1F [Example 51]
Rank the items in ascending order with respect to IC50. List the labels according to the requested ordering.
I, II, III
(I: 490 nM, II: 1100 nM, III: 1700 nM)

###

# target.of.assay: Nav1.7 (or SCN9A) channel (Homo sapiens, UniProt Q15858)
# Construct: expressed in transfected cells
# Sequence (Q15858 whole entry): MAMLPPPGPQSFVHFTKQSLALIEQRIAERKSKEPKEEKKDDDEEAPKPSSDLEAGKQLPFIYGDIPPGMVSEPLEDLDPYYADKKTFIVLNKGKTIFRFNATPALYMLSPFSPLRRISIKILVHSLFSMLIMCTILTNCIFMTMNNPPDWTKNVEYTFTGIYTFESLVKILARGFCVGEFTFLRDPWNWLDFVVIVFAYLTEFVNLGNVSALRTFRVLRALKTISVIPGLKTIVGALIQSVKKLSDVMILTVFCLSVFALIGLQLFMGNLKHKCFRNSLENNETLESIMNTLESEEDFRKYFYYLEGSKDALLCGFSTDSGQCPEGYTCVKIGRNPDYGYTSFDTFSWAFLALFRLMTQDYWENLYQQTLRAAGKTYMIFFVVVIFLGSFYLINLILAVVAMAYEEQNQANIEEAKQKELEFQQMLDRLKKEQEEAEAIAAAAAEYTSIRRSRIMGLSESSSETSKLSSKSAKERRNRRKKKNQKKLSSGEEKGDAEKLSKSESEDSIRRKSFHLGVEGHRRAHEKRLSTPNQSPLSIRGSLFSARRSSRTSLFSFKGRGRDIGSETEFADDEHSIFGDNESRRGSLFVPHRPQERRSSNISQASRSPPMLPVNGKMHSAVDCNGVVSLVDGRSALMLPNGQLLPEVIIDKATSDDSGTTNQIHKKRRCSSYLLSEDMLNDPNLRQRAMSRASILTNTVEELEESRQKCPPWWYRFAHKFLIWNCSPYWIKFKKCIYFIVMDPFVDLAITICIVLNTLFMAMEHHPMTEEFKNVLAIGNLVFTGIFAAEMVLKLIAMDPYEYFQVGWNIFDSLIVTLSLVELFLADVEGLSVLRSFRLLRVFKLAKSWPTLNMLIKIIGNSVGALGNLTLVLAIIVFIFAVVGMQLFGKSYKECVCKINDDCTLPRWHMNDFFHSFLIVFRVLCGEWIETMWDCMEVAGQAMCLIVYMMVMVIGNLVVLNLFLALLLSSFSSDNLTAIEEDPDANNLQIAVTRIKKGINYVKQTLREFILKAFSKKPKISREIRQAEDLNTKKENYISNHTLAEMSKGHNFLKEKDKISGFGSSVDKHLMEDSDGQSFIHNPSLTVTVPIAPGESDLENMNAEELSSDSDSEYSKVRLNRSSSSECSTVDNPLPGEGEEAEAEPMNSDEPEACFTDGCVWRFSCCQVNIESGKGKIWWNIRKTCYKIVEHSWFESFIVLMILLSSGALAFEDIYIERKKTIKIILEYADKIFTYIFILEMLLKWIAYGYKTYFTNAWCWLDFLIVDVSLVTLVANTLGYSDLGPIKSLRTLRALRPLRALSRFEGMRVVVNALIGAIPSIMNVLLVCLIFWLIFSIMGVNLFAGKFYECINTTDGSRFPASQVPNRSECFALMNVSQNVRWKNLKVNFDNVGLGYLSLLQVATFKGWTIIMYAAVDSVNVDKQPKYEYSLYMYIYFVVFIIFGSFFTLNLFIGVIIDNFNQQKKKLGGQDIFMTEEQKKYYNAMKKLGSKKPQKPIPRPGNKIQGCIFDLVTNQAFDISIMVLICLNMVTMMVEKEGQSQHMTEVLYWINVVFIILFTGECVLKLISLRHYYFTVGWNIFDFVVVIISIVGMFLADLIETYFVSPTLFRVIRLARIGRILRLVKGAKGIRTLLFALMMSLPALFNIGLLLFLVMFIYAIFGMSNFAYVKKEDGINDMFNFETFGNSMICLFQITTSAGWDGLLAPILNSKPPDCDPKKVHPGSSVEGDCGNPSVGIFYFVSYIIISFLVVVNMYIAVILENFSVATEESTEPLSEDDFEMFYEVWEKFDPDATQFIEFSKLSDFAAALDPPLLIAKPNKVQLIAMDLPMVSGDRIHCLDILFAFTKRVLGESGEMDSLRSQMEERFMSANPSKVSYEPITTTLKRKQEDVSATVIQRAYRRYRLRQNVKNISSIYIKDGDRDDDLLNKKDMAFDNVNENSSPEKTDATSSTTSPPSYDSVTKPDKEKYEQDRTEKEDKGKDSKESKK
# assay.protocol: Nav1.7 Ionworks Quattro automated electrophysiology in HEK cells expressing hSCN9A
# Type: cell-based
# protocol.conditions: estimated IC50, values marked (IW), Ionworks Quattro assay, read-out: Nav1.7 EIC50 (IW)
pIC50: −log10 of the molar value.
value.kind: pIC50

> print(dat)
                                   molecule                           target.of.assay  reported
1  CS(=O)(=O)NC(=O)c1ccc(Oc2ccc(Cl)cc2)c(-c2cncc(C#N)c2)c1 [Example 44]  Nav1.7 (or SCN9A) channel (Homo sapiens, UniProt Q15858)      4.77
2  CS(=O)(=O)NC(=O)c1ccc(Oc2ccc(Cl)cc2)c(-c2cccc(C(F)(F)F)c2)c1 [Example 13]  Nav1.7 (or SCN9A) channel (Homo sapiens, UniProt Q15858)      4.62
3  CS(=O)(=O)NC(=O)c1ccc(Oc2ccc(Cl)cc2)c(-c2cccc(Cl)c2)c1 [Example 22]  Nav1.7 (or SCN9A) channel (Homo sapiens, UniProt Q15858)      4.82
4  CS(=O)(=O)NC(=O)c1ccc(Oc2ccc(Cl)cc2)c(-c2cccc(F)c2)c1 [Example 17]  Nav1.7 (or SCN9A) channel (Homo sapiens, UniProt Q15858)      4.89
5  CS(=O)(=O)NC(=O)c1ccc(Oc2ccc(Cl)cc2)c(-c2cccc(OC(F)(F)F)c2)c1 [Example 28]  Nav1.7 (or SCN9A) channel (Homo sapiens, UniProt Q15858)      4.80

A: CS(=O)(=O)NC(=O)c1ccc(Oc2ccc(Cl)cc2)c(-c2cn[nH]c2)c1 [Example 30]
B: Cc1ncc(-c2cc(C(=O)NS(C)(=O)=O)ccc2Oc2ccc(Cl)cc2)cn1 [Example 46]
C: COc1ncc(-c2cc(C(=O)NS(C)(=O)=O)ccc2Oc2ccc(Cl)cc2)cn1 [Example 40]
D: CS(=O)(=O)NC(=O)c1ccc(Oc2ccc(Cl)cc2)c(-c2ccc(C#N)cc2)c1 [Example 25]
Rank the items in ascending order with respect to pIC50. List the labels according to the requested ordering.
B, C, A, D
(B: 3.82, C: 4.16, A: 4.74, D: 5.00)

I: CS(=O)(=O)NC(=O)c1ccc(Oc2ccc(Cl)cc2)c(-c2cccc(C#N)c2)c1 [Example 26]
II: CS(=O)(=O)NC(=O)c1ccc(Oc2ccc(Cl)cc2)c(-c2cccnc2)c1 [Example 19]
Lab note: check whether I or II has the lower measured pIC50. Reply with the label of the item you choose.
II
(II: 4.55, I: 4.77)

Cited source for all entries: patent US8772343B2
